molecular target: hGIPR (Homo sapiens, UniProt P48546); test: Functional cAMP activation in the presence of 0.1% casein (no HSA); type: cell-based; conditions: in the presence of 0.1% casein (no HSA); geometric mean; read-out: Relative cAMP EC50, hGIPR;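 note: intracellular cAMP rise after 30 min at 37 °C read by HTRF against a standard curve, scaled between buffer alone (0%) and top control ligand concentration (100%), four-parameter fit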
Sequence (P48546 22-466): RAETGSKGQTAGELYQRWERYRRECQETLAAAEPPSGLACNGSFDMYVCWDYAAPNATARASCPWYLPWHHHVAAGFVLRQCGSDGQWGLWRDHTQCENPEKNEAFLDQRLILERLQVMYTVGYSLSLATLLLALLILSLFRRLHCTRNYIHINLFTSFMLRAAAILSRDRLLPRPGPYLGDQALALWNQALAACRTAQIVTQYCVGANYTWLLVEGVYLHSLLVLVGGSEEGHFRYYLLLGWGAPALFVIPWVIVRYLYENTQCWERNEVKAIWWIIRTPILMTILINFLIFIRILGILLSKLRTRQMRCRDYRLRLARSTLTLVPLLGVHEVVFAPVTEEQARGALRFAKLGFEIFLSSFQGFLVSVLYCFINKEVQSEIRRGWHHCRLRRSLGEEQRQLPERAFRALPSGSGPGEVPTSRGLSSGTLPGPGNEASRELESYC
Starred links: 1 amine or outer side, 2 acyl side, 3 side chain; linkers in the order of their positions; H or OH if unused. Non-standard residues stand in square brackets, D forms with d. Groups on a side chain read outwards from the residue. No end group written: not given here. *: point of attachment. C18 diacid = O=C(O)CCCCCCCCCCCCCCCCC(=O)*; γGlu = O=C(O)[C@H](CCC(=O)[*:2])N[*:1]; αMe4Pal = C[C@](N)(Cc1ccncc1)C(=O)O; αMeY = C[C@](N)(Cc1ccc(O)cc1)C(=O)O; αMeF = C[C@](N)(Cc1ccccc1)C(=O)O; 4Pal = N[C@@H](Cc1ccncc1)C(=O)O; αMeL = CC(C)C[C@](C)(N)C(=O)O; αMeS = C[C@](N)(CO)C(=O)O; Orn = NCCC[C@H](N)C(=O)O; AEEA = NCCOCCOCC(=O)O; Aib = CC(C)(N)C(=O)O
Listed substances paired with reported EC50
Answer with a number only, understood to be in nM.

Consider the following illustrative entries.
H-Y[Aib]QGTFTSD[4Pal]S[Orn][αMeL]LD[Orn]K([Glu-Glu-γGlu-C18 diacid])AQ[αMe4Pal]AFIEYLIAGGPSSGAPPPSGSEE-NH2 [Example 1062] ... 0.726
Y[Aib]QGTFTSDFS[Orn][αMeL]LDKK([AEEA-AEEA-γGlu-C18 diacid])AQ[Aib]AFIEYLLE[dA]GPSSGHPPPSGH-NH2 [Example 255] ... 0.107
H-Y[Aib]QGTFTSDFS[Orn][αMeL]LDKK([AEEA-γGlu-C18 diacid])AQ[Aib]AFIEWLLEGGHSSGAPPPSGE-NH2 [Example 122] ... 0.189

Challenge: Find the measured EC50: item H-Y[Aib]QGTFTSDFS[Orn][αMeL]LD[Orn]K([γGlu-γGlu-C18 diacid])AQ[Aib]AFIE[αMeY]LLEGGPSSGAPPPGGSEE-NH2 [Example 1049] , target or system hGIPR (Homo sapiens, UniProt P48546).
Response given: 0.24

Challenge: # value lookup — system hGIPR (Homo sapiens, UniProt P48546), readout EC50, item Y[Aib]QGT[αMeF]TSD[4Pal][αMeS]I[αMeL]LD[Orn]K([γGlu-γGlu-C18 diacid])AQ[αMe4Pal]EFI[dE][αMeY]LIEGGPSSGAPPPSGGGE-NH2 [Example 1174]
Response given: 0.00896

Challenge: What is its EC50 for hGIPR (Homo sapiens, UniProt P48546)? Entry: Y[Aib]QGTFTSDFS[Orn][αMeL]LDKK([AEEA-AEEA-γGlu-C18 diacid])AQ[Aib]AFIEYLLE[dA]GPSSG[4Pal]PPPSGS-NH2 [Example 254]
Response given: 0.121
